molecular target: FAAH (Rattus norvegicus, UniProt P97612); construct: Preparation of Rat Brain Membranes Preparations (FAAH Enzyme Solution); from tissue; host or cells: rat cerebrum (brain membrane preparation); assay: Determination of FAAH inhibitory activity in rat (rat brain membrane preparations, [3H]-anandamide hydrolysis); format: biochemical; details: rat brain membrane preparations; test substance 0.1 nM to 1 μM; read-out: FAAH Inhibition IC50
Sequence (P97612 whole entry): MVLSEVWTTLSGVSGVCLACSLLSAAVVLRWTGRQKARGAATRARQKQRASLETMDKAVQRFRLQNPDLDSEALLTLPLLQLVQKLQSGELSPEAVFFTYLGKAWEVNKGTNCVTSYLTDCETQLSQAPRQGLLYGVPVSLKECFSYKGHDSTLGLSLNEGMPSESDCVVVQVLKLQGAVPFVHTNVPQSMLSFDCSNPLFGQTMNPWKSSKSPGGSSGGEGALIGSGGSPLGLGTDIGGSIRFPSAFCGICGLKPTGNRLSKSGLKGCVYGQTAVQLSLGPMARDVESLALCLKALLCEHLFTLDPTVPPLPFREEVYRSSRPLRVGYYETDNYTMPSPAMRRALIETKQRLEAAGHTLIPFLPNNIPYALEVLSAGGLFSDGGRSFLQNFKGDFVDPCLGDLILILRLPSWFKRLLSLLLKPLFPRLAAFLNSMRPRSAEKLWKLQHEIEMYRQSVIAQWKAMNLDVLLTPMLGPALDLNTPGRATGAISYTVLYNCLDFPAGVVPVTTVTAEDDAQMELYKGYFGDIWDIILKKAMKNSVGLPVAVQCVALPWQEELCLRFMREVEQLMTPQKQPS

smiles representation	bound sign	IC50 / nM
Cn1c(=O)n(C(=O)N2CCCC2)c2cnc(/C=C/c3cccc(C(F)(F)F)c3)nc21	>	100
CN1CCN(C(=O)n2c(=O)n(C)c3nc(-c4ccccc4)ncc32)CC1	>	100
COc1ccc(CN(C)C(=O)n2c(=O)n(C)c3nc(-c4cccc(OC)c4)ncc32)cc1	=	44
Cc1cccc(N2CCN(C(=O)n3c(=O)n(C)c4nc(-c5ccccc5)ncc43)CC2)c1	=	7
CCN(C)C(=O)n1c(=O)n(C)c2cnc(CCc3ccc(F)cc3)nc21	=	106
